Test system: NR1b/NR2A NMDAR expressed in HEK293 cells
Format: cell-based, rat
stated.conditions: pH 7.35
assay.readout: % maximal inhibition, 1b/2A (%)
Answers are plain numbers, in %.

GEγγVAKAAAγLARγNI(NH2) [con-R′ [M8A]] = 0

State the recorded % maximal inhibition, 1b/2A for every item in the following list.
1. GEγγYQKMAγNLRγAEVKKNA(NH2) [con-T[L9A]]
2. GEγγVAKNAAγLARγNI(NH2) [con-R′ [M8N]]
3. GEγγYQγMLγNLRγAEVKKNA(NH2) [con-T[K7γ]]
4. GEγγVAAMAAγLARγNI(NH2) [con-R′ [K7A]]
5. GEγγVQKMQAγLARγNI(NH2) [con-R′ [A6Q/A9Q]]

[reply]
1: 91; 2: 60; 3: 82; 4: 93; 5: 25

###

Test system: NR1b/NR2A NMDAR expressed in HEK293 cells
Type: cell-based, rat
stated.conditions: pH 7.35
assay.readout: % maximal inhibition, 1b/2A (%)
Answers are plain numbers, in %.

GEγγLQKMLγNLRγAEVKKNA(NH2) [con-T[Y5L]] = 86
GEγγLQγNQγNLRγAEVKKNA(NH2) [con-G/T] = 0
GEγγYQKALAγNLRγAEVKKNA(NH2) [con-T[M8A/+A10]] = 0
GEγγYQKGLγNLRγAEVKKNA(NH2) [con-T[M8G]] = 0
GEγγYQAMLγNLRγAEVKKNA(NH2) [con-T[K7A]] = 91

Now turn to the next substance.
[ask] Can you share its % maximal inhibition, 1b/2A? I mean this substance: GEγγVQKMAAγLARγNI(NH2) [con-R′ [A6Q]]
[reply] 72

###

System: NR1a/NR2B NMDAR expressed in HEK293 cells
Assay type: cell-based, rat
stated.conditions: pH 7.35
assay.readout: % maximal inhibition, 1a/2B (%)
Numbers only, in %.

Known results for substances:
GEγγYQAMLγNLRγAEVKKNA(NH2) [con-T[K7A]] = 85
GEγγLQKMLγNLRγAEVKKNA(NH2) [con-T[Y5L]] = 85
GEγγVQKMQAγLARγNI(NH2) [con-R′ [A6Q/A9Q]] = 70

State the recorded % maximal inhibition, 1a/2B for every item in the following list.
1. GEγγVQKMAAγLARγNI(NH2) [con-R′ [A6Q]]
2. GEγγVAAMAAγLARγNI(NH2) [con-R′ [K7A]]
3. GEγγVAKAAAγLARγNI(NH2) [con-R′ [M8A]]

[reply]
[84, 91, 85]

###

Tested on: NR1b/NR2B NMDAR expressed in HEK293 cells
Assay type: cell-based, rat
stated.conditions: pH 7.35
Kindly supply the reported % maximal inhibition, 1b/2B values for the records listed here.
Give bare numbers, in %.

State the recorded % maximal inhibition, 1b/2B for every item in the following list.
1. GEγγYQKALAγNLRγAEVKKNA(NH2) [con-T[M8A/+A10]]
2. GEγγVAAMAAγLARγNI(NH2) [con-R′ [K7A]]
3. GEγγVAKAAAγLARγNI(NH2) [con-R′ [M8A]]
4. GEγγVQKMQAγLARγNI(NH2) [con-R′ [A6Q/A9Q]]
5. GEγγYQγMLγNLRγAEVKKNA(NH2) [con-T[K7γ]]
6. GEγγLQKMLγNLRγAEVKKNA(NH2) [con-T[Y5L]]
7. GEγγVQKMAAγLARγNI(NH2) [con-R′ [A6Q]]

[reply]
1: 67; 2: 95; 3: 88; 4: 79; 5: 90; 6: 90; 7: 90
